test: chemical genetic growth profiling, strain panel (AID 1159580);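 also: tested at 20 µM; growth read once vehicle control cultures reached saturation at 30 °C; 1 = growth at the plate median or of vehicle wells; lower values mean less growth of the strain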; conditions: S. cerevisiae deletion strains, growth OD, locus YER155C, strain BEM2, hits give low values
The whole screen tested about 5,500 compounds, of which about 2,000 (36%) were called active. Roughly 18% stayed inconclusive and do not appear here. Some of the results follow.
assayMetric: normalized growth

>  <compound>
CC(N)C(O)c1ccc(O)c(O)c1 (stereo not given)

>  <assayMetric>
normalized growth

>  <observedMeasurement>
0.994

$$$$
>  <compound>
CC1=CC(=O)C2=C(C)CC(O)C3C(C)C(=O)OC3C12 (stereo not given)

>  <assayMetric>
normalized growth

>  <observedMeasurement>
1

$$$$
>  <compound>
NC(=O)NO

>  <assayMetric>
normalized growth

>  <observedMeasurement>
0.998

$$$$
>  <compound>
COP(=O)(OC)OC(Br)C(Cl)(Cl)Br (stereo not given)

>  <assayMetric>
normalized growth

>  <observedMeasurement>
1

$$$$
>  <compound>
CO[C@H]1C[C@H](O[C@H]2[C@H](C)[C@@H](OC3O[C@H](C)C[C@H](N(C)C)[C@H]3OC(C)=O)[C@@H](C)C[C@]3(CO3)C(=O)[C@H](C)[C@@H](OC(C)=O)[C@@H](C)[C@@H](C)OC(=O)[C@@H]2C)O[C@@H](C)[C@@H]1OC(C)=O (stereo not given in full)

>  <assayMetric>
normalized growth

>  <observedMeasurement>
1.01

$$$$
>  <compound>
CC(=O)NO

>  <assayMetric>
normalized growth

>  <observedMeasurement>
1.03

$$$$
>  <compound>
C[C@]12CCC(=O)C=C1CCC1C2C(=O)C[C@@]2(C)C1CC[C@]2(O)C(=O)CO (stereo not given in full)

>  <assayMetric>
normalized growth

>  <observedMeasurement>
1

$$$$
>  <compound>
CC(=O)OCC(=O)[C@@]1(O)CCC2C3CCC4=CC(=O)CC[C@]4(C)C3[C@@H](O)C[C@@]21C (stereo not given in full)

>  <assayMetric>
normalized growth

>  <observedMeasurement>
1.01

$$$$
>  <compound>
COc1cc2cc3c4cc(OC)c(OC)cc4cc[n+]3c(C)c2cc1OC

>  <assayMetric>
normalized growth

>  <observedMeasurement>
1.01

$$$$
>  <compound>
NC(=O)N1c2ccccc2C=Cc2ccccc21

>  <assayMetric>
normalized growth

>  <observedMeasurement>
1.01

$$$$

====

assay: chemical genetic growth profiling, strain panel (AID 1159580);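 also: tested at 20 µM; growth read once vehicle control cultures reached saturation at 30 °C; 1 = growth at the plate median or of vehicle wells; lower values mean less growth of the strain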; details: S. cerevisiae deletion strains, growth OD, locus YGR252W, strain gcn5, hits give low values
Screen size: about 5,500 compounds; about 2,000 (36%) were called active. Roughly 18% stayed inconclusive and do not appear here. The list shows a part of the results.

>  <chemSmiles>
COc1c2occc2c(OC)c2c(=O)cc(C)oc12

>  <normalized growth>
0.965

$$$$
>  <chemSmiles>
COc1ccc2c(c1OC)OC[C@@H](c1ccc(OC)c(OC)c1OC)C2

>  <normalized growth>
0.976

$$$$
>  <chemSmiles>
COc1cc(/C=C/C=O)cc(OC)c1OC

>  <normalized growth>
1.03

$$$$
>  <chemSmiles>
Cc1cc(=O)n(-c2ccccc2)n1C

>  <normalized growth>
1

$$$$
>  <chemSmiles>
COc1ccc([C@H]2COc3c(ccc(O)c3OC)C2)c(OC)c1O

>  <normalized growth>
1.03

$$$$
>  <chemSmiles>
COc1ccc2c(=O)ccoc2c1

>  <normalized growth>
0.825

$$$$
>  <chemSmiles>
Cc1c(NC(=O)c2cccnc2)c(=O)n(-c2ccccc2)n1C

>  <normalized growth>
1.02

$$$$

These entries and their values trace back to PubChem BioAssay AID1159580.
